Every entry's value here was drawn from patent US20190106487A1.

# target.under.test: T1, human IL-1RAcP on 293T/17-FR cells (human, UniProt Q9NPH3 21-570)
# T1 sequence (looked up): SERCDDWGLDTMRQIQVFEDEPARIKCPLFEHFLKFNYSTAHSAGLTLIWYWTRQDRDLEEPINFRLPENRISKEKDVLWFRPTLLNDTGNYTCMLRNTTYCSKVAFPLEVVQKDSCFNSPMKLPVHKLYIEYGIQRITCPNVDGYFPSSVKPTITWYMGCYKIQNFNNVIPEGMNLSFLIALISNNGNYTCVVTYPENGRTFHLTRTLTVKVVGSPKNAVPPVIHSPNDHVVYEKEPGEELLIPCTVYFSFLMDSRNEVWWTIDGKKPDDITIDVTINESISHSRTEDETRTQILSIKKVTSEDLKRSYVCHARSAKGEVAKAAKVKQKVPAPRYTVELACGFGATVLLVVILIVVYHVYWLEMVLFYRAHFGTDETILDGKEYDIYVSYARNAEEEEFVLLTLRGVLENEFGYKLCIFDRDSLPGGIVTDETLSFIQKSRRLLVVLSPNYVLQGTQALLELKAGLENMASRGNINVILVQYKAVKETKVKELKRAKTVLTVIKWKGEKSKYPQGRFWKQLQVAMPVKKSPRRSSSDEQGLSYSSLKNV
# assay.remarks: cell-based or functional assay
endpoint: functional reporter gene assay (% inhibition), 0.2 µg/mL mAb

* P013.S.01.B.H06 (antibody, V domains shown, rabbit monoclonal antibody; also called P013.A.00086.B03) VH: LEQSGGGGEGGLVKPGGSLELCCKASGFSLSSSYWICWVRQAPGKGLEWIGCIYVGSSGSTYYASWVSGRFTLSRDIDQSTGCLQLNSLTAADTAMYYCARDIYGSTNGYDLWGQGTLVTVSS VL: ALVMTQTPSPVSAAVGGTVTINCQASEDIYSNLAWFQQKPGQPPKLLIYQASKLASGVPSRFSGSGSGTEFTLTISGLQSDDVATYYCLGVGTYISGDGSLDNAFGGGTEVVVK | 47%
* P013.S.01.B.A04 (antibody, V domains shown, rabbit monoclonal antibody; also called P013.A.00085.C03) VH: QEQLEESGGGLVKPGGTLTLTCKASGIDFSSYYYMCWVRQAPGKGLEWIACIFIGYGDVTWYASWAKGRFTISKASSTTVTLQMTSLTAADTATYFCARALGSSGYRVNLWGPGTLVTVSS VL: ALVMTQTPSSVSAAVGGTVTINCQASENIYSSLAWYQQKPGQPPKLLIYDASDLASGVPSRFKGSGSGKEFTLTISDLESDDAATYYCQQGYYSGGTDNDVFGGGTEVVVK | 89%
* P013.S.01.B.E06 (antibody, V domains shown, rabbit monoclonal antibody; also called P013.A.00030.F07) VH: QSLEESGGDLVKPGASLTLTCTASGFSFSSTYYMCWVRQAPGKGLEWIACIYAGSSGSTYYASWAKGRFTISKTSSTTVTLQMTSLTAADTATYFCARVDGSSSGSWDLWGPGTLVTVSS VL: AIEMTQTPSSVSAAVGGTVTINCQASQNIYSNLAWYQQKPGQRPKLLIYAASLLASGVPSRFKGNGSGTEYTLTISDLESADAATYYCQGAVYSGNTEWAFGGGTEVVVK | 60%
